B1: 2M8U (parent)
chain: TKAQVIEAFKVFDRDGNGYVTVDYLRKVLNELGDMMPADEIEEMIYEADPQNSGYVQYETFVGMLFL

variants of: B1; test: folding stability dG (cDNA display proteolysis); higher = more stable; conditions: PBS, room temperature
EXPERIMENTAL_ENDPOINT: folding stability dG (kcal/mol)
Write it as a number; the unit kcal/mol goes unstated.

Please look up its folding stability dG: TKAQVIEAFKVFDRDGNGYVTVDYLRKVLNELGDMMPADEIEEMIYEADPQNSGYVQYETFVGDLFL [M64D]
3.23

Please look up its folding stability dG: TKAQVIEAFKVFDRDGNGYQTVDYLRKVLNELGDMMPADEIEEMIYEADPQNSGYVQYETFVGMLFL [V20Q]
2.15

// provenance: the MegaScale stability set (Tsuboyama et al. 2023)
